From: the Human Domainome abundance scans (Beltran et al. 2025)

A collection of variants and their measured abundance fitness
B1: Nuclear receptor subfamily 1 group D member 2, residues 103 to 171; numbered along this chain, Q14995 (parent)
chain: CKVCGDVASGFHYGVHACEGCKGFFRRSIQQNIQYKKCLKNENCSIMRMNRNRCQQCRFKKCLSVGMSR

# Variants of: B1
# procedure text: abundance fitness (aPCA) (normalised: wild type 0, dead -1); higher = more abundant; growth selection in yeast, the domain comes from the species named
# condition details: Homo sapiens

{"monomer sequence": "CKVCGDVASGFHYGVHACEGCKGFFRRSIQQNIQYKKCLKNENCSIMRMNRNGCQQCRFKKCLSVGMSR", "abundance fitness": 0.103}
{"monomer sequence": "CKVCGDVASGFHYGVHACEGCKGFFRRSIQQNIQYKKCLKNENCSIMRMMRNRCQQCRFKKCLSVGMSR", "abundance fitness": -0.61}
{"monomer sequence": "CKVCGDVASGFHYGVHACEGCKGFFRRSIQQNIQYKKCLKNENCSIMRMNRNRCQQCRFKKSLSVGMSR", "abundance fitness": -0.757}
{"monomer sequence": "CKVCGDVASGFHYGVHACEGCKGFFRRSIQQNRQYKKCLKNENCSIMRMNRNRCQQCRFKKCLSVGMSR", "abundance fitness": -0.531}
{"monomer sequence": "CKVCGDVASGFHYGVHACEGCKGFFRRSSQQNIQYKKCLKNENCSIMRMNRNRCQQCRFKKCLSVGMSR", "abundance fitness": -0.7}
{"monomer sequence": "CKVCGDVASGFHYGVHACEGCKGFFRRSIQQNIQYKKCLKNENCSIMRMNRPRCQQCRFKKCLSVGMSR", "abundance fitness": -0.698}
{"monomer sequence": "CKVCGDVASGFHYGVHACEGCKGFFRRSIQQNIQYKKCLKNENCSILRMNRNRCQQCRFKKCLSVGMSR", "abundance fitness": -0.057}
